# Tested on: Saccharomyces cerevisiae;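 note: PSI is a weighted mean of sequencing reads over stability bins, variants kept only with over 10 reads, mCherry proximal and sfGFP distal, peptide attached via GGGS linker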
# Assay method text: protein stability index of tFT-peptide fusion (C-terminal peptide) (PSI (0-1 scale)); higher = more stable (slower turnover)
# Condition: genetic background: wild type; temperature: 37 C
Entry flag: 1 if protein stability index reaches 0.5; -1 if it does not.

Solved entries:
Sequence string	Target entity	Assigned label
PLRVFFLVAFCL	Saccharomyces cerevisiae	-1
SSAPPTLHTRPS	Saccharomyces cerevisiae	1
YMPKHKIQKLMQ	Saccharomyces cerevisiae	1
RLVCPFYIACVW	Saccharomyces cerevisiae	1
GSVGFICCVVVV	Saccharomyces cerevisiae	-1
TVIVCCHLEVVY	Saccharomyces cerevisiae	-1
VLAARVVLLRCR	Saccharomyces cerevisiae	-1
RYLCLTPALYLS	Saccharomyces cerevisiae	-1
FWFLWAKMLLSC	Saccharomyces cerevisiae	-1
HRDVISVVRNMS	Saccharomyces cerevisiae	1

Asked: I'd appreciate it if you could say whether "SYMWLVEVLLFI" has protein stability index at least equal to 0.5.
Given back: -1

Source: the supplement of paper PMC10724198
